The reported numbers originate from patent US20220112288A1.

# Subject of test: T1, Rhesus macaque CD4-HIS (Acro Biosystems, Cat. CD4-C52H7) (rhesus macaque, UniProt P16003 26-390)
# T1 construct: Bought reagent; also called Rhesus CD4; rhesus CD4-HIS; not shown: His tag
# Procedure details: BLI (Octet Red384); Ab on anti-mouse Fc (AMC) sensor; rhesus CD4-HIS 100/50/25 nM; global 1:1 fit;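 further: antibodies loaded at 10 µg/mL, an unrelated mouse-derived antibody served as internal reference, curves fit over association and dissociation phases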
For each of the binders below, state its koff.
One number for each entry, in s⁻¹.

Recorded koff, per entry:
75110_07J02A (antibody, V domains shown, Tested as antibody purified from AlivaMab Mouse hybridoma supernatant (human variable domains, kappa; mouse Fc, captured on anti-mouse IgG Fc sensors); also called ADS75110 purified AMM Ab) VH: EVQLVESGGGLVQPGGSLRLSCAASGFTFSSYWMSWVRQAPGKGLEWVANIKEDGSEKYYVDSVKGRFTISRDNAKNSLYLQMNSLRAEDTAVYYCARDGSYSGYGMDVWGQGTTVTVSS VL: AIQMTQSPSSLSASVGDRVTITCRASQGIRNDLGWYQQKPGKAPKLLIYAASSLQSGVPSRFSGRGSGTDFALTISSLQPEDFATYYCLLDYNYPYTFGQGTRLEIK; 0.0028
75110_08G08A (antibody, V domains shown, Tested as antibody purified from AlivaMab Mouse hybridoma supernatant (human variable domains, kappa; mouse Fc, captured on anti-mouse IgG Fc sensors); also called ADS75110 purified AMM Ab) VH: QVQLQESGPGLVKPSETLSLTCSVSGGSISTYYWSWIRQPAGKGLEWIGRICTTENTNYNPSLKSRVTMSIDSSKNQFSLKLSSVTAADTAVYYCARDLERLNYYGMDVWGQGATVTVSS VL: DIQMTQSPSSLSASVGDRVTITCQASQDISNYLNWYQQKPGIAPKLLIYDASNLETGVPSRFSGSGSGTDFTFTISSLQPEDIATYYCQQYDSLPITFGQGTRLEIK; 0.0041
75110_09N20A (antibody, V domains shown, Tested as antibody purified from AlivaMab Mouse hybridoma supernatant (human variable domains, kappa; mouse Fc, captured on anti-mouse IgG Fc sensors); also called ADS75110 purified AMM Ab) VH: EVQLVESGGGLVQPGGSLRLSCAASGFTFSSYWMSWVRQAPGKGLEWVANINEDGSEKYYVDSVKGRFTISRDNAKNSLYLQMNSLRAEDTAVYYCVREGGQWLALDYWGQGTLVTVSS VL: DIQMTQSPSSVSASVGDRVTITCRASQGISSWLAWYQQKPGKAPKLLIYAASSLQSGVPSSFSGSGSGTDFTLTINSLQPEDFATYYCQQANSFPWTFGQGTKVAIK; 0.004
75110_10N21A (antibody, V domains shown, Tested as antibody purified from AlivaMab Mouse hybridoma supernatant (human variable domains, kappa; mouse Fc, captured on anti-mouse IgG Fc sensors); also called ADS75110 purified AMM Ab) VH: EVQLVESGGGLVQPGGSLRLSCAASGFTFSSYDMHWVRQVTGKGLEWVSTIGTAGDTYYPGSVKGRFTISRENAKNSLYLQMNSLRAGDTAVYYCARGGYYYYGMDVWGQGTTVTVSS VL: EIVLTQSPGTLSLSPGERATLSCRASQSFISSYLAWYQQKPGQAPRLLIYGASSRATGIPDRFSGSGSGTDFTLTISRLDPEDFAVYYCQQSGNSPFTFGPGTKVDVK; 0.001
75110_12C19A (antibody, V domains shown, Tested as antibody purified from AlivaMab Mouse hybridoma supernatant (human variable domains, kappa; mouse Fc, captured on anti-mouse IgG Fc sensors); also called ADS75110 purified AMM Ab) VH: EVQLVESGGGLVQPGGSLRLSCAASGFTFSSYWMSWVRQAPGKGLEWVANIKEDGSDKYYVDSVKGRFTISRDNAKNSLYLQMNSLRAEDTAVHYCVREGGQWLALDYWGQGTLVTVSS VL: DIQMTQSPSSVSGSVGDRVTITCRASQGISSWLAWYQQKPGKAPKLLIYGASSLQSGVPSRFSGSGSGTDFTLTISSLQPEDFVTYYCQQANSFPWTFGQGTKVEIK; 0.0038

Give koff for each of the items listed below.
1. 75110_14N19A (antibody, V domains shown, Tested as antibody purified from AlivaMab Mouse hybridoma supernatant (human variable domains, kappa; mouse Fc, captured on anti-mouse IgG Fc sensors); also called ADS75110 purified AMM Ab) VH: QVQLQESGPGLVKPSETLSLTCTVSGGSISRYYWSWIRQPAGKGLEWIGRICTSENPNYNPALKSRVTMSVDTSKNQFSLKLSSVTAADTAVYYCARELERLNYYGMDVWGQGTTVTVSS VL: DIQMTQFPSSLSASVGDRVTITCQASQDISNYLNWYQQKPGKAPKLLIYDASNLESGVPSRFSGRGSGTDFTFTISSLQPEDFATFYCQQYDTLPITFGQGTRLEIK
2. 75110_07B16A (antibody, V domains shown, Tested as antibody purified from AlivaMab Mouse hybridoma supernatant (human variable domains, kappa; mouse Fc, captured on anti-mouse IgG Fc sensors); also called ADS75110 purified AMM Ab) VH: QVQLQQWGAGLLKPSETLSLTCAVYGGSFSGYYWSWIRQSPGKGLEWIGEINQSGSTNYNPSLKSRVTISVDTSKDQFSLKLSSVTAADTAVYYCARVINWFDSWGQGSLVTVSS VL: DIQMTQSPSSVSASVGDRVTITCRASQGISSWLAWYQQKPGKAPKLLIYDASSFQSGVPSRFSGSGSGTDFTLTISSLQTDDFATYYCQQANSFPYTFGQGTKLEIK
3. 75110_12H19A (antibody, V domains shown, Tested as antibody purified from AlivaMab Mouse hybridoma supernatant (human variable domains, kappa; mouse Fc, captured on anti-mouse IgG Fc sensors); also called ADS75110 purified AMM Ab) VH: EVQLVESGGGLVQPGGSLRLSCAASGFTFSSYWMSWVRQAPGQGLEWVANINEDGNEKYHVDSVKGRLTISRDNAKNSLYLQMNSLRGVDTAVYFCAREGGQWLALDYWGQGALVTVSS VL: DIQMTQSPSSVSASVGDRVSITCRASQGISSWLAWYQQKPGKAPKLLIYGASGLQSGVPSRFSGSGSGTDFTLTISSLQPEDFATYYCQQANSFPWTFGQGTKVEIK
4. 75110_06G04A (antibody, V domains shown, Tested as antibody purified from AlivaMab Mouse hybridoma supernatant (human variable domains, kappa; mouse Fc, captured on anti-mouse IgG Fc sensors); also called ADS75110 purified AMM Ab) VH: QVQLLESGPGLVKPSETLSLTCTVSGGSISSYYWSWIRQPAGKGLEWIGRIYISGSTNYNPSLKSRVTMSIDTSENQFSLNLSSVTAADTAVYYCARELERPYYYGMDVWGQGTTVTVSS VL: DIQMTQSPSSLSASVGDRVTITCQASQDISNYLNWYQQKPGKAPKLLIYNASTLETGVPSRFSGSGSGTDFTFTISSLQPEDIATYYCQQYDNLPLTFGGGTKVEFK

Result string:
1. 0.0021
2. 0.0033
3. 0.0026
4. 0.0011
